The reported measurements were obtained from paper PMC4553520.

Please respond with reported LC50 (Ae. albopictus), mg/L (95% CL) for every item in the list.
system: early third-instar larvae of Ae. albopictus; assay: Direct-contact mortality bioassay, Ae. albopictus larvae; conditions: early third-instar larvae, 24 h exposure, direct contact

Ask: Give reported LC50 (Ae. albopictus), mg/L (95% CL) value for CC1=CCC(O)(C(C)C)CC1 (single isomer, unassigned; (+)) [(+)-terpinen-4-ol]
Reply: 98.28 (91.85–105.07) mg/L

Ask: Give reported LC50 (Ae. albopictus), mg/L (95% CL) value for C=C(C)[C@H]1CC=C(C)C(=O)C1 [(S)-(+)-carvone]
Reply: 43.83 (41.78–45.91) mg/L

Ask: Give reported LC50 (Ae. albopictus), mg/L (95% CL) value for C=C1CC[C@@H]2[C@H]([C@@H]3[C@H](C)CC[C@@H]13)C2(C)C
Reply: 129.21 (118.02–145.97) mg/L

Ask: Give reported LC50 (Ae. albopictus), mg/L (95% CL) value for CC1=C[C@H](O)[C@H]2C[C@@H]1C2(C)C (relative stereo) [(S)-cis-verbenol]
Reply: 136.86 (121.92–161.87) mg/L

Ask: Give reported LC50 (Ae. albopictus), mg/L (95% CL) value for CC(C)=CCCC(C)CCO (stereo not drawn) [(−)-β-citronellol]
Reply: 71.99 (64.67–80.37) mg/L

Ask: Give reported LC50 (Ae. albopictus), mg/L (95% CL) value for CC(=O)OC(C)(C)C1CC=C(C)CC1 (stereo not shown) [Terpinyl acetate]
Reply: 72.39 (65.05–80.55) mg/L

Ask: Give reported LC50 (Ae. albopictus), mg/L (95% CL) value for CC(C)=CCCC(C)CC=O (single isomer, unassigned; (+)) [(+)-citronellal]
Reply: 46.39 (41.08–52.95) mg/L

Ask: Give reported LC50 (Ae. albopictus), mg/L (95% CL) value for CC1(C)C2CC=C(CO)C1C2 (single isomer, unassigned; (-)) [(−)-myrtenol]
Reply: >150 mg/L

Ask: Give reported LC50 (Ae. albopictus), mg/L (95% CL) value for CC1(C)[C@@H]2CC[C@H](CO)[C@H]1C2 (relative stereo) [(−)-cis-myrtanol]
Reply: >150 mg/L

Ask: Give reported LC50 (Ae. albopictus), mg/L (95% CL) value for C=C1CC[C@H]2O[C@]2(C)CC[C@@H]2[C@@H]1CC2(C)C [Caryophyllene oxide]
Reply: 107.62 (99.82–116.81) mg/L

Ask: Give reported LC50 (Ae. albopictus), mg/L (95% CL) value for C/C1=C\CC/C(C)=C/CC(C)(C)/C=C/C1
Reply: >150 mg/L

Ask: Give reported LC50 (Ae. albopictus), mg/L (95% CL) value for Cc1ccccc1C(C)C
Reply: 48.57 (42.14–55.77) mg/L

Ask: Give reported LC50 (Ae. albopictus), mg/L (95% CL) value for CC(C)=CCCC(C)CCO (stereo not drawn) [(+)-β-citronellol]
Reply: 90.89 (83.26–99.00) mg/L

----------
test system: early third-instar larvae of Cx. p. pallens; assay: Direct-contact mortality bioassay, laboratory-reared Cx. p. pallens larvae; conditions: laboratory-reared early third-instar larvae, 24 h exposure, direct contact
Please respond with reported LC50 (Cx p. pallens), mg/L (95% CL) for every item in the list.

Ask: Give reported LC50 (Cx p. pallens), mg/L (95% CL) value for CC1=CCC(O)(C(C)C)CC1 (single isomer, unassigned; (+)) [(+)-terpinen-4-ol]
Reply: 86.25 (78.22–95.55) mg/L

Ask: Give reported LC50 (Cx p. pallens), mg/L (95% CL) value for CC(C)=CCCC(C)CCO (stereo not drawn) [(+)-β-citronellol]
Reply: 87.81 (80.62–95.50) mg/L

Ask: Give reported LC50 (Cx p. pallens), mg/L (95% CL) value for CC(C)=CCCC(C)CC=O (single isomer, unassigned; (+)) [(+)-citronellal]
Reply: 49.47 (43.52–57.04) mg/L

Ask: Give reported LC50 (Cx p. pallens), mg/L (95% CL) value for CC1(C)[C@@H]2CC[C@H](CO)[C@H]1C2 (relative stereo) [(−)-cis-myrtanol]
Reply: >150 mg/L

Ask: Give reported LC50 (Cx p. pallens), mg/L (95% CL) value for C=C1CC[C@H]2O[C@]2(C)CC[C@@H]2[C@@H]1CC2(C)C [Caryophyllene oxide]
Reply: 126.28 (110.92–158.13) mg/L

Ask: Give reported LC50 (Cx p. pallens), mg/L (95% CL) value for C=C(C)[C@H]1CC=C(C)C(=O)C1 [(S)-(+)-carvone]
Reply: 46.19 (43.54–49.12) mg/L

Ask: Give reported LC50 (Cx p. pallens), mg/L (95% CL) value for CC(C)=CCCC(C)CCO (stereo not drawn) [(−)-β-citronellol]
Reply: 66.26 (59.63–73.33) mg/L

Ask: Give reported LC50 (Cx p. pallens), mg/L (95% CL) value for C/C1=C\CC/C(C)=C/CC(C)(C)/C=C/C1
Reply: >150 mg/L

----------
Please respond with reported LC50 (Cx p. pallens), mg/L (95% CL) for every item in the list.
tested on: early third-instar larvae of Cx. p. pallens; test: Direct-contact mortality bioassay, laboratory-reared Cx. p. pallens larvae; settings: laboratory-reared early third-instar larvae, 24 h exposure, direct contact

Ask: Give reported LC50 (Cx p. pallens), mg/L (95% CL) value for C=C1CC[C@@H]2[C@H]([C@@H]3[C@H](C)CC[C@@H]13)C2(C)C
Reply: 147.91 (127.93–188.26) mg/L

Ask: Give reported LC50 (Cx p. pallens), mg/L (95% CL) value for CC1=C[C@H](O)[C@H]2C[C@@H]1C2(C)C (relative stereo) [(S)-cis-verbenol]
Reply: 140.41 (124.89–167.57) mg/L

Ask: Give reported LC50 (Cx p. pallens), mg/L (95% CL) value for CC1(C)C2CC=C(CO)C1C2 (single isomer, unassigned; (-)) [(−)-myrtenol]
Reply: >150 mg/L

Ask: Give reported LC50 (Cx p. pallens), mg/L (95% CL) value for CC(=O)OC(C)(C)C1CC=C(C)CC1 (centres unmarked) [Terpinyl acetate]
Reply: 58.27 (52.60–64.82) mg/L

Ask: Give reported LC50 (Cx p. pallens), mg/L (95% CL) value for Cc1ccccc1C(C)C
Reply: 47.78 (40.96–55.39) mg/L

----------
biological target: UniProt:Q86GC8; assay: AChE inhibition assay, Cx. p. pallens; type: biochemical; details: in vitro
Sequence (Q86GC8 37-702): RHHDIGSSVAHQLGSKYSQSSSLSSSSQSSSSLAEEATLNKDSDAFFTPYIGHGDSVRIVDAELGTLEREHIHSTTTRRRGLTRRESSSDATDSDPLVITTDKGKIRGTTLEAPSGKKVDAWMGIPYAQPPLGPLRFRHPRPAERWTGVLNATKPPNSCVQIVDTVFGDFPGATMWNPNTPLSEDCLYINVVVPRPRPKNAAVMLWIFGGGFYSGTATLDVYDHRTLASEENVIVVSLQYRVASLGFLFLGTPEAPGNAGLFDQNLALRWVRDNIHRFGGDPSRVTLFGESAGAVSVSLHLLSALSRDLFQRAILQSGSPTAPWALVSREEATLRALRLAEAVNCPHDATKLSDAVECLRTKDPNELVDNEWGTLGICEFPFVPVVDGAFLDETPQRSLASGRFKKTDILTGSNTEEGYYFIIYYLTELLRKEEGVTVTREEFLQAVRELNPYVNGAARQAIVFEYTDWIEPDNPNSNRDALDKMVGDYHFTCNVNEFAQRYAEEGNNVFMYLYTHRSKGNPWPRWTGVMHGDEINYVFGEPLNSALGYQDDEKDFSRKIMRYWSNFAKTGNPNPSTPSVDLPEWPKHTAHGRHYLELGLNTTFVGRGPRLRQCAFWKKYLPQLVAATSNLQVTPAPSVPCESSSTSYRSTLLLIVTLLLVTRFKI
Reported Metric: IC50

Ask: Give reported IC50 value for C/C1=C\CC/C(C)=C/CC(C)(C)/C=C/C1
Reply: 62.3 mM

----------
Molecular target: UniProt:Q6A2E2
Sequence (Q6A2E2 37-679): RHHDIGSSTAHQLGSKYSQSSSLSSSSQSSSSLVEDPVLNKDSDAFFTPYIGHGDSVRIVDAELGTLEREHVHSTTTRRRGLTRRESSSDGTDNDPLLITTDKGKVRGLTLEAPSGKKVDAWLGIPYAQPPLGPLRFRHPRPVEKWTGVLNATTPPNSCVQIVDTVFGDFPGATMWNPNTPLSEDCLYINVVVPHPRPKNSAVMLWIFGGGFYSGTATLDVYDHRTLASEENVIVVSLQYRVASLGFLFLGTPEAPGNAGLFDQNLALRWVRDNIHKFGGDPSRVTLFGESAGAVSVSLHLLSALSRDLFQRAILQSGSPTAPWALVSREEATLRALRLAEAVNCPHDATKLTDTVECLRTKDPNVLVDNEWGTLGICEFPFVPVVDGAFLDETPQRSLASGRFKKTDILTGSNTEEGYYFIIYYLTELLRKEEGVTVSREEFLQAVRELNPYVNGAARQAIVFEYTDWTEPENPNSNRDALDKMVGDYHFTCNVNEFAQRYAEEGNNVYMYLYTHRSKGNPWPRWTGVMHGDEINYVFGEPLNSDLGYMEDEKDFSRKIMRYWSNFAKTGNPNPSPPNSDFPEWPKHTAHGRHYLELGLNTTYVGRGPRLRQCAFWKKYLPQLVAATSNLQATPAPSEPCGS
Assay: AChE inhibition assay, Ae. aegypti
Format: biochemical
Settings: in vitro
Procedure: For each species, larvae frozen at −20 °C were decapitated and 100 heads were homogenized in 5 mL of ice-cold 0.1 M sodium phosphate buffer (pH 8.0), using a Teflon glass tissue homogenizer. The homogenate was centrifuged at 10,000 × g at 4 °C for 20 min. […] Protein concentrations were determined by the Bradford dye method using BSA as the standard. […] The absorbance was recorded at 414 nm, using a Molecular Devices VersaMax microplate reader (Sunnyvale, CA, USA). […]
Reported Metric: IC50 (mM)
Lab book: enter the figure in mM, no units written.

Ask: Give reported IC50 value for C/C1=C\CC/C(C)=C/CC(C)(C)/C=C/C1
Reply: 58.1

----------
molecular target: acetylcholinesterase (AChE) extracted from the heads of larval Ae. albopictus (Aedes albopictus); experiment: AChE inhibition assay, Ae. albopictus; type: biochemical; settings: in vitro
Sequence (Q2PGF2 37-680): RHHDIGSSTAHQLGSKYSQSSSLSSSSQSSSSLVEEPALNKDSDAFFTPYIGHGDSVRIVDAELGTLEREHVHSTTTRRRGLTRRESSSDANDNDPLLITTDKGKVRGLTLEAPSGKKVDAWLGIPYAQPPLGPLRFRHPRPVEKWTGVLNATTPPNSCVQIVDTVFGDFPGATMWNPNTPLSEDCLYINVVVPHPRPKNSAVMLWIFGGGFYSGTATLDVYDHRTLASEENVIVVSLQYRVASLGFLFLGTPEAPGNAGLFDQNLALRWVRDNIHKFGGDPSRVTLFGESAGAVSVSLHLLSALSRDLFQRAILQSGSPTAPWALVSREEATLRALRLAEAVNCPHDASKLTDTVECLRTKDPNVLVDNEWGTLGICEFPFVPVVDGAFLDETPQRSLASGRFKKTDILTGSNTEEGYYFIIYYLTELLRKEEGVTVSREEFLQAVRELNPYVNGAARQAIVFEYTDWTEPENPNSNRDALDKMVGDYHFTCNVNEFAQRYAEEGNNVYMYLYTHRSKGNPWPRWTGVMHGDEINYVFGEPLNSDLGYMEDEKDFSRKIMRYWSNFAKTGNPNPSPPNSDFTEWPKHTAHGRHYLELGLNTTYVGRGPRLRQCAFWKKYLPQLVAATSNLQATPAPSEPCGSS
Reported Metric: IC50 (mM)
Lab book: enter the figure in mM, no units written.

Ask: Give reported IC50 value for C/C1=C\CC/C(C)=C/CC(C)(C)/C=C/C1
Reply: 47.6
